TARGET OF ASSAY: T1, LAIR1 on LAIR1 reporter cells (human, UniProt Q6GTX8 22-165, limits assumed); also: test concentration or dose not given here
T1 chain: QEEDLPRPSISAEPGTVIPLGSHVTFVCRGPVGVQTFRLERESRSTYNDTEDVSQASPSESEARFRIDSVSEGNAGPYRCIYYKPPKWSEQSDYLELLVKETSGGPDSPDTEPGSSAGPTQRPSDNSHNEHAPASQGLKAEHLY
ASSAY DETAILS: cell-based or functional assay
READOUT TYPE: GFP+% of LAIR1 reporter cells, collagen I coated, soluble Ab and K562 cells (%)
Quick note: give the figure in %, leave out the unit.

Here is how some binders turned out for GFP+% of LAIR1 reporter cells, collagen I coated, soluble Ab and K562 cells.
>>> measured_result("LA-219 (antibody, V domains shown, Rabbit monoclonal IgG; Called a potential antagonist antibody) VH: EQSVESGGGLITPGGTLTLTCTASGFTVTRYYMNWVRQAPGKGLEWIGYIYASSKTYYANWAKGRFTISKTSTTVDLKMTSLTAEDTGTYFCARGGVGNSGLNLDLWGPGTLVTISS VL: ELDMTQTPASVSEPVGGTVTIKCQASQSIGSWLAWYQQKPGQPPKLLIYQASRLASGVSSRFGGSGSGTEFTLTISDLECADAATYYCQQAEYSGDVENTFGGGTEVVVK")
2.11
>>> measured_result("LA-87 (antibody, V domains shown, Rabbit monoclonal IgG; also called mAb LA-87) VH: QSVKESGGRLVTPGGSLTLTCTVSGFSLSNYNIQWVRQAPGKGLEWIGFISPAGNGYYASWAKGRFTISKASSTTVELKMTSLTASDTATYFCARHWDLWGPGTLVTISS VL: ELVLTQTASSVSAAVGGTVTISCQSSQSVYSNYLSWFQQKPGQPPKELVYWTSTLQSGVPSRFSGSGSGTQFTLTISDLECDDAATYYCLGGYSGWFYAFGGGTEVVVK")
0.844

For the next question, use this binder.
Enquiry: Look at this binder and give its reported GFP+% of LAIR1 reporter cells, collagen I coated, soluble Ab and K562 cells. LA-35 (antibody, V domains shown, Rabbit monoclonal IgG; also called mAb LA-35) VH: EQSVKESGGRLVTPGTPLTLTCTVSGIDLSYYSMGWFRQAPGKGLEWIGVISSSDSTYYANWAKGRFTISKTSTTVDLKIAGPTTEDTATYFCARVLANSYNAFNLWGPGSLVTISS VL: ELDLTQTPASVSEPVGGTVTIKCQASQSVGSRLAWYQQKPGQPPKLLIYKASTLASGVPSRFKGSGSGTQFTLTMSDLECADAATYYCQCTNISSAYLGAFGGGTEVEIK
Return: 1.13

Hey, just so you know, these numbers are from patent US20190338026A1.
